biological target: LCK (Homo sapiens, UniProt P06239); assay: Inhibition of a panel of kinases, in vitro HotSpot kinase assay: LCK; type: biochemical; settings: Table 10, Formula A-I; 1 μM ATP; read-out: LCK (IC50)
Sequence (P06239 whole entry): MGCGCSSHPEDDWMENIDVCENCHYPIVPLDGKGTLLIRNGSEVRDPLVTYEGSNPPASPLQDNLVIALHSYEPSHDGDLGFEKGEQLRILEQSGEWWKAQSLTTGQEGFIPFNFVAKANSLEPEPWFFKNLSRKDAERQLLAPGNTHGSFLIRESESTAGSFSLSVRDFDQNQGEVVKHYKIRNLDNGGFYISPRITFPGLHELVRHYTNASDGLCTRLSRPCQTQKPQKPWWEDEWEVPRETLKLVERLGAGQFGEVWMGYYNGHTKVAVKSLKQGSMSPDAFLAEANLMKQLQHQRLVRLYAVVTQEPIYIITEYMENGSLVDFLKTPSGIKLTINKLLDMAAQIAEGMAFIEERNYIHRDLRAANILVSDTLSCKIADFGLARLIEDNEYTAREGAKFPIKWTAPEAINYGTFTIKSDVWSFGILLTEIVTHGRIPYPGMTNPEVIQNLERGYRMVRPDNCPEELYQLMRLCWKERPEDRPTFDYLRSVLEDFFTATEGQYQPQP
pIC50: −log10 of the molar value.
property: pIC50

The examples below pair each entry with its known result.
• CS(=O)(=O)c1ccc(Nc2nc(N3CCC[C@@H](N4CCN(c5cccc(Cl)c5)C4=O)C3)cnc2C(N)=O)cc1 = > 7.00
• Cc1cc(Nc2nc(N3CC[C@@H](NC(=O)c4ccccc4)C3)cnc2C(N)=O)sn1 = 5.00 to 6.00
• Cc1cc(Nc2nc(N3CCC(CNC(=O)c4ccccc4)CC3)cnc2C(N)=O)sn1 = 6.00 to 7.00
• NC(=O)c1ncc(N2CCC[C@@H](NC(=O)NC3CCCCC3)C2)nc1Nc1ccc(C2CCN(C3CCCC3)CC2)cc1 = 6.00 to 7.00
• Cc1cc(Nc2cc(N3CCC[C@@H](NC(=O)N(C)C)C3)cnc2C(N)=O)sn1 = < 5.00

Now consider the entry below.
Record request: pIC50 value, item Cc1cc(Nc2nc(N3CCC[C@@H](NC(=O)Nc4ncc(C)s4)C3)cnc2C(N)=O)sn1
5.00 to 6.00
